Test system: KM12 colon
measurement.description: NCI-60 one-dose screen, 48 h
experimental.setup: 10 µM unless noted
Description: Growth inhibition of the KM12 human tumor cell line is measured as a screen for anti-cancer activity. Cells are grown in 96 well plates and exposed to the test compound for 48 hours. Compounds are tested at a single concentration, which is 10^-5 M for most compounds. The reported endpoint is percent growth (GI% or GIPRCNT), where numbers from 0 - 100% represent growth inhibition, and numbers from -100% - 0 represent cell death. For example, a value of 40 represents 60% growth inhibition. […]
This is part of a sample that, as a whole, favours compounds with a hit. Of some 83,000 tested, about 20% had one in any assay. Active and inactive are the calls of the source. Rule for the calls: active = growth percent below 10; inactive = the rest.
Labels: active, inactive

compound	tested.on	class.name
O=C(NCc1ccc(Cn2c(=O)sn(-c3ccccc3)c2=O)cc1)OCc1ccc2c(Br)cc(Br)c(O)c2n1	KM12 colon	active
C=C(CN=[N+]=[N-])[C@@H]1CC[C@]2(C)[C@H](CC[C@@H]3[C@H]4[C@H]5OC(=O)[C@@]4(CCC5(C)C)CC[C@]32C)[C@@]1(C)CCC#N	KM12 colon	inactive
Cc1ccc(S(=O)(=O)Nc2ccccc2)cc1N	KM12 colon	inactive
Cc1cccc(C[C@H](NC(=O)Nc2ccc(C)cc2F)C(=O)N[C@@H]2C(=O)N3C[C@H](O)C[C@H]3C(=O)N3CCN(C)C[C@H]3C(=O)N[C@@H](C)C(=O)N3C[C@H](C)C[C@H]3C(=O)O[C@H]2C)c1	KM12 colon	inactive
Cc1ccc(S(=O)(=O)N/N=C2\CC3CCC2(C)C3(C)C)cc1 (configuration not stated)	KM12 colon	inactive
C[C@H]1[C@H](C)CC[C@]2(C(=O)O)CC[C@]3(C)C(=CC[C@@H]4[C@@]5(C)C/C(=C/c6ccco6)C(=O)C(C)(C)[C@@H]5CC[C@]43C)[C@H]12	KM12 colon	active
C#CCC(C(=O)OCC)C(=O)OCC	KM12 colon	inactive

----------
System: 786-0 renal
measurement.description: NCI-60 one-dose screen, 48 h
experimental.setup: 10 µM unless noted
Compounds without any hit were thinned out: in the full panel of roughly 83,000, 20% have a hit. Active and inactive are the calls of the source. How the source made its calls: active means growth percent below 10; inactive means the rest.
Labels: active, inactive

In [3]: df
Out[3]:
                                    molecule  class_name
 0  COc1cccc(-c2[nH]c(=S)ncc2C(=O)c2ccccc2)c1    inactive
 1  COc1ccc(NCc2cn(-c3ccc(C(=O)O)cc3)nc2-c2ccc(C(=O)O)cc2)cc1C(F)(F)F    inactive
 2  O=[N+]([O-])c1cccc(N=NNc2cccc([N+](=O)[O-])c2)c1    inactive
 3  Nc1nc(SCc2cccc([N+](=O)[O-])c2)c2[nH]cnc2n1    inactive
 4               O=C(CCN1CCCCC1)c1ccc(Cl)cc1    inactive
 5  CCN=Cc1c(O)c(O)c(C(C)C)c2cc(C)c(-c3c(C)cc4c(C(C)C)c(O)c(O)c(C=NCC)c4c3O)c(O)c12    inactive
 6       O=S(=O)(NCc1ccccc1)c1ncnc2nc[nH]c12    inactive
 7  CCOC(=O)c1nn(C2CCCCO2)c2ccc(NC(=O)CN3CCOCC3)cc12 (stereo not given)    inactive
 8  Cc1cc(NN=C(c2ccc(O)cc2)c2ccc(O)cc2)c([N+](=O)[O-])cc1[N+](=O)[O-]      active
 9    CCOC(CNC(=O)c1cccc([N+](=O)[O-])c1)OCC    inactive
10  O=C(OCc1ccc2c(Cl)cc(Cl)c(O)c2n1)N1CCNCC1    inactive
11  Cn1cc(-c2nnc(-c3cn(C)c4ncc(Br)cc34)s2)c2cc(Br)ccc21    inactive
12        NC(=O)CC1C=CCC1 (stereo not given)    inactive
13  C=C(C)[C@@H]1CC[C@]2(COCCCN)CC[C@]3(C)[C@H](CC[C@@H]4[C@@](C)(CCCNCCCN)[C@H](C(=C)C)CC[C@]43C)[C@@H]12      active
14  CC(C)=CC/C=C(/C)[C@H]1CC[C@]2(C)[C@@H]1CC[C@@H]1[C@@]3(C)CCCNC(C)(C)[C@@H]3CC[C@]12C      active
15  C=C(C)[C@@H]1CC[C@]2(C(=O)NCCCN)CC[C@]3(C)[C@H](CC[C@@H]4[C@@]5(C)CC[C@H](O)C(C)(C)[C@@H]5CC[C@]43C)[C@@H]12      active
16  Nc1ccc(NC(=O)c2ccccc2)c2c1C(=O)c1ccccc1C2=O    inactive
17                         O=C(NCCO)c1cccnc1    inactive
18  C#C[C@]1(O)CC[C@H]2[C@@H]3CC=C4c5nc(Nc6ccc(OC)cc6OC)sc5CC[C@]4(C)[C@H]3CC[C@@]21C      active
19                         CC(C)CCNCC(C)(C)O    inactive
20       O=C1NC(=O)C(Cc2ccccc2)(Cc2ccccc2)N1    inactive
21  O=S(=O)(c1ccc(N/N=C\c2ccccc2Cl)cc1)c1ccc(N/N=C/c2ccccc2Cl)cc1    inactive
22  C#C[C@]1(O)CC[C@H]2[C@@H]3CC=C4c5nc(Nc6ccccc6[N+](=O)[O-])sc5CC[C@]4(C)[C@H]3CC[C@@]21C      active
23                   Cc1nc(-c2ccccc2)sc1CC#N    inactive
24  CCCCN(CCCC)CC(O)c1ccc(OCc2ccccc2)c2ccccc12 (stereo not given)    inactive
25  Nc1nc(Nc2ccccc2)c2ncn(Cc3ccc4c(c3)OCO4)c2n1    inactive
26  C#CCOc1ccc(C2=NN(CC3CC3)C3N=C(Cl)c4ncn(CC5CC5)c4N23)cc1OCC#C (stereo not given)    inactive
27  CCOC(=O)c1cc(C(=O)c2ccc(OC)c(OC)c2)n2ccc(-c3ccccn3)cc12    inactive
28  CCOC(=O)c1nn(C2CCCCO2)c2ccc(NS(=O)(=O)c3ccc(C)cc3)cc12 (stereo not given)    inactive
29                            CCc1cccc(Cl)c1    inactive
30  Cc1cc2c(C(C)C)c(O)c(O)c(C=NCc3ccoc3)c2c(O)c1-c1c(C)cc2c(C(C)C)c(O)c(O)c(C=NCc3ccco3)c2c1O    inactive
31  O=C1Cc2c(sc3c(F)cccc23)C(c2ccccc2[N+](=O)[O-])N1 (stereo not given)    inactive
32             CCNc1cc2c(cc1Br)-c1ccccc1C2=O    inactive
33  CNC(=O)c1cc(Oc2cccc3nc(NC(=O)Nc4cc(C(F)(F)F)cc(C(F)(F)F)c4)ccc23)ccn1      active
34  CN(C)c1ccc(-c2ccc(-c3ccc(C(=N)N)cc3)s2)cc1      active
35  COc1ccc(C2CC(c3cc(OC)c(OC)c(OC)c3)=NN2C(C)=O)cc1OCC(=O)Nc1nc2ccc(C(F)(F)F)cc2s1 (stereo not given)    inactive
36              CCOC(=O)c1c[nH]n2c(=S)ncnc12    inactive
37               Cc1ccccc1OC(=O)c1cccc(Cl)c1    inactive
38  C=C(C)[C@@H]1CC[C@]2(c3ncc(C)o3)CC[C@]3(C)[C@H](CC[C@@H]4[C@@](C)(CCC#N)[C@H](C(=C)C)CC[C@]43C)[C@@H]12      active
39         ClC1=C(Cl)C(Cl)=C(Cl)C1=Cc1ccccc1      active

Hello, the source for this data is PubChem BioAssay (NCI), in case you need it.
